# experimental_target: recombinant soluble homotrimeric HA of A/duck/Yangzhou/02/05 (H8N4) (Influenza A virus A/duck/Yangzhou/02/2005(H8N4))
# test_summary: HA microarray, BCC supernatant
# run_conditions: remark: other sources report otherwise
Quick reference for Trimeric HA Binding: RLU among some binders
Expressed in RLU, but write only the number.

q: # Trimeric HA Binding: RLU lookup, item TCN-553 (5261_C18) (antibody, V domains shown) VH: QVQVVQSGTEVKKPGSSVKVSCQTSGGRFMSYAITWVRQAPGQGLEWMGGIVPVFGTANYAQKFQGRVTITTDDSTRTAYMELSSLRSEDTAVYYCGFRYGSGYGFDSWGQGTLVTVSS VL: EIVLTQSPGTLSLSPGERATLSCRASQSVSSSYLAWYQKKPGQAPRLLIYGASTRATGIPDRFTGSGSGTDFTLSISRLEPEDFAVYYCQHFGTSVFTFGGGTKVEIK
a: 28000

q: Which Trimeric HA Binding: RLU value belongs to TCN-551 (5243_D01) (antibody, V domains shown) VH: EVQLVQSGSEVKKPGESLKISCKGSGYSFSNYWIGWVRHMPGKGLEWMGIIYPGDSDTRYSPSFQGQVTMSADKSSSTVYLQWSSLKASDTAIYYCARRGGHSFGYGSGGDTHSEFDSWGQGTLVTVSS VL: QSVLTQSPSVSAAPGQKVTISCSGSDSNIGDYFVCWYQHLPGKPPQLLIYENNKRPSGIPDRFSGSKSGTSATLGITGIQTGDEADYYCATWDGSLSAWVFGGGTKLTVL ?
a: 9820

q: Query: Trimeric HA Binding: RLU; subject: TCN-534 (5249_B02) (antibody, V domains shown) VH: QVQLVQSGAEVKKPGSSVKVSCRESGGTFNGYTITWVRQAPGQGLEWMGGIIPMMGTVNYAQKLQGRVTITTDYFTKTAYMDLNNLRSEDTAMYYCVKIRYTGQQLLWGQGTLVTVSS VL: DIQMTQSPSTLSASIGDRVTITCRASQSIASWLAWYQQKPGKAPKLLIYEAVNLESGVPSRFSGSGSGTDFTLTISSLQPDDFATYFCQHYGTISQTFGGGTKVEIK
a: 46500
